- Target Under Test: KpSSB (Klebsiella pneumoniae, UniProt A6TGW7 1-174)
- Sequence (A6TGW7 whole entry): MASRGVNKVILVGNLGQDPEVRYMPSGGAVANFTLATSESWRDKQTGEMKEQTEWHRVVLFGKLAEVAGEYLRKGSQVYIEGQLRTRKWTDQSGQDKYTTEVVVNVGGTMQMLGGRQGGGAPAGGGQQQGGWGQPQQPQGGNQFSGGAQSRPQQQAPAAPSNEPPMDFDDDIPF
- Method Notes: EMSA; monomer conc.; 1 complex; EMSA: 20 mM Tris-HCl pH 8.0, 100 mM NaCl, 25 C, 30 min, 1.7 nM 32P-ssDNA; 8% native PAGE in TBE at 4 C
- Assay Context: protein: recombinant; tags: none (tag-free); chain copies: 4; label: 5'-32P
Measured apparent K (half saturation) by item

[
  {
    "Binder": "TTTTTTTTTTTTTTTTTTTTTTTTTTTTTTTTTTTTTTTTTTTTTTTTTT (ssDNA) [dT50]",
    "Measurement Unit": "nM",
    "apparent K (half saturation)": 170
  },
  {
    "Binder": "TTTTTTTTTTTTTTTTTTTTTTTTTTTTTTTTTTTTTTTT (ssDNA) [dT40]",
    "Measurement Unit": "nM",
    "apparent K (half saturation)": 230
  },
  {
    "Binder": "TTTTTTTTTTTTTTTTTTTTTTTTT (ssDNA) [dT25]",
    "Measurement Unit": "nM",
    "apparent K (half saturation)": 580
  },
  {
    "Binder": "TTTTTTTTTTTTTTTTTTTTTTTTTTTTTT (ssDNA) [dT30]",
    "Measurement Unit": "nM",
    "apparent K (half saturation)": 550
  }
]
